system: cholera toxin-induced fluid secretion in rat intestine; settings: in vivo
Reported values of ED50 (amount causing halfmaximal inhibition) for individual entries

- substance: "N3: recombinant peptide, amino acids 36-51 of SEQ ID NO:2, expressed from basepairs 168-215 (VCHSKTRSNPENNVGL; Human)"
  value: "3 pmol"
- substance: "IVCHSKTR (Human) [P1]"
  value: "5 pmol"
- substance: "P3: peptide of amino acids 35-46 of SEQ ID NO:2, solid phase synthesis (IVCHSKTRSNPE; Human)"
  value: "7 pmol"

Value lookup for ED50 (amount causing halfmaximal inhibition); key = N2: recombinant peptide, amino acids 36-80 of SEQ ID NO:2, expressed from basepairs 168-301 (VCHSKTRSNPENNVGLITLANDCEVLTTLTPDTGRILSKLHTVQP; Human)
6 pmol
